- System: GALAP (Galium aparine)
- assayOverview: Postemergence herbicidal evaluation
- Format: in vivo
- assayConditions: postemergence, rate 0.0620 kg/ha
Documented GALAP herbicidal rating across a set of compounds
readoutKind: GALAP herbicidal rating

INSERT INTO assay_data (compound, quantitativereadout) VALUES
  ('Cn1c(C(F)(F)F)cc(=O)n(-c2ccc3snc(C4OCC(CO)O4)c3c2)c1=O (centres unmarked) [Compound 73]', 9.0),
  ('C=C1COC(c2nsc3ccc(-n4c(=O)cc(C(F)(F)F)n(C)c4=O)cc23)OC1 [Compound 58]', 9.0),
  ('CSCC1COC(c2nsc3ccc(-n4c(=O)cc(C(F)(F)F)n(C)c4=O)cc23)O1 (centres unmarked) [Compound 84]', 7.5),
  ('Cc1sccc1-c1nsc2ccc(-n3c(=O)cc(C(F)(F)F)n(C)c3=O)cc12 [Compound 68]', 9.0),
  ('Cn1c(C(F)(F)F)cc(=O)n(-c2ccc3snc(C4=NCCO4)c3c2)c1=O [Compound 75]', 7.0);
